For each of the compounds below, state its Selectivity.
system: Opioid receptors; mu & delta; assay: Selectivity ratio expressed as Ki of delta opioid receptor to that of mu opioid receptor.; format: protein assay; conditions: Cavia porcellus
Answers are plain numbers.

Check out these entries, answers already filled in.
CHEMICAL SMILES: NC(=O)c1ccc2c(c1)[C@@]13CCCC[C@H]1[C@@H](C2=O)N(CC1CCC1)CC3
Selectivity: 20
//
CHEMICAL SMILES: NC(=O)c1ccc2c(c1)[C@@]13CCCC[C@H]1[C@@H](C2)N(CC1CC1)CC3
Selectivity: 17
//
CHEMICAL SMILES: CC(C)=CCN1CC[C@]23CCCC[C@H]2[C@H]1C(=O)c1ccc(O)cc13
Selectivity: 58

// for each compound below, give its Selectivity
1. Nc1ccc2c(c1)[C@@]13CCCC[C@H]1[C@@H](C2)N(CC1CC1)CC3
2. O=C1c2ccc(O)cc2[C@@]23CCCC[C@H]2[C@@H]1N(CCc1ccccc1)CC3
3. O=C(O)c1ccc2c(c1)[C@@]13CCCC[C@H]1[C@@H](C2=O)N(CC1CCC1)CC3

Given back:
1: 120; 2: 15; 3: 29
